Attribution: patent US20090208538A1

Biological target: HLA-A*1101 (human)
Test: iTopia net score

binder: SGWELASVN [cdr2 401-409 SGWELASVN]
iScore: 0.059
//
binder: QLGATGAYR [cdr2 236-244 QLGATGAYR]
iScore: 0.038
//
binder: GQGRRSPGK [cdr2 140-148 GQGRRSPGK]
iScore: 0.633
//
binder: TQYSALKVK [cdr2 351-359 TQYSALKVK]
iScore: 0.276
//
binder: KVKYEELLK [cdr2 357-365 KVKYEELLK]
iScore: 0.22
//
binder: VQTSRAAAK [cdr2 379-387 VQTSRAAAK]
iScore: 0.343
//
binder: ASQQKILSL [cdr2 107-113 ASQQKILSL]
iScore: 0.19
//
binder: LQSQVEELK [cdr2 129-137 LQSQVEELK]
iScore: 0.103
//
binder: ESHRKPLKR [cdr2 300-308 ESHRKPLKR]
iScore: 0.063
//
binder: IFSCIKKTK [cdr2 429-437 IFSCIKKTK]
iScore: 0.088
//
binder: PDSLYVPFK [cdr2 276-284 PDSLYVPFK]
iScore: 0.063
//
binder: AQLSLERQK [cdr2 207-215 AQLSLERQK]
iScore: 0.271
//
binder: VYDHVFAEK [cdr2 172-180 VYDHVFAEK]
iScore: 0.146
//
binder: LQAQLSLER [cdr2 205-213 LQAQLSLER]
iScore: 0.118
//
binder: LTVPESHRK [cdr2 296-304 LTVPESHRK]
iScore: 0.558
//
binder: LQEIEYLTK [cdr2 60-68 LQEIEYLTK]
iScore: 0.048
